Experiment: Fraction unbound in mouse brain
measure name: fraction unbound
Number, no unit, nothing else.

Item: CCCC(C)(COC(N)=O)COC(N)=O [MEPROBAMATE] | fraction unbound: 0.76
